Source of measurements: patent US3970648A

- Experiment summary: Growth promotion in chicks, Example XI (Table V)
- Type: in vivo, broiler cross chicks
- Condition details: 25 g/T in basal ration; 4 weeks
Positions of bridges follow the written chain, without caps; N, C: chain ends. Non-standard residues stand in square brackets, D forms with d. Residues, ends and D or L forms follow the SMILES beside them. *: point of attachment. Ileψ(thiazoline)Cys = CC[C@H](C)[C@H](N)C1=N[C@H](C(=O)*)CS1; dOrn = NCCC[C@@H](N)C(=O)O
# maps each entry to its Improved Response Over Basal Ration: Feed Efficiency
Readout: Improved Response Over Basal Ration: Feed Efficiency

- Compound: "O=[N+]([O-])c1ccc(C=Cc2nc(Nc3ccc(O)cc3)c3ccccc3n2)o1"
  Result value: "+6.9%"
- Compound: "[O-][n+]1cc[n+]([O-])c2ccccc21 [Quinoxaline-1,4-dioxide, quinoxaline-1,4-dioxide]"
  Result value: "+5.2%"
- Compound: "CN(C)[C@@H]1C(O)=C(C(N)=O)C(=O)[C@@]2(O)C(O)=C3C(=O)c4c(O)ccc(Cl)c4[C@@](C)(O)[C@H]3C[C@@H]12 [Chlortetracycline, reference compound]"
  Result value: "+4.7%"
- Compound: "CC[C@H](C)[C@H](N)C1=N[C@H](C(=O)N[C@@H](CC(C)C)C(=O)N[C@H](CCC(=O)O)C(=O)N[C@H](C(=O)N[C@H]2CCCCNC(=O)[C@H](CC(N)=O)NC(=O)[C@@H](CC(=O)O)NC(=O)[C@H](Cc3cnc[nH]3)NC(=O)[C@@H](Cc3ccccc3)NC(=O)[C@H]([C@@H](C)CC)NC(=O)[C@@H](CCCN)NC2=O)[C@@H](C)CC)CS1 [Bacitracin] ({Ileψ(thiazoline)Cys}-L[dE]IK[dOrn]I[dF]H[dD]N; lactam 4-C)"
  Result value: "+3.1%"
